Reference source: patent US20230295118A1

biological target: CDK6 (Homo sapiens, UniProt Q00534); construct: endogenous in cells; experiment: CDK6 degradation (DC50, Dmax); format: cell-based
Sequence (Q00534 whole entry): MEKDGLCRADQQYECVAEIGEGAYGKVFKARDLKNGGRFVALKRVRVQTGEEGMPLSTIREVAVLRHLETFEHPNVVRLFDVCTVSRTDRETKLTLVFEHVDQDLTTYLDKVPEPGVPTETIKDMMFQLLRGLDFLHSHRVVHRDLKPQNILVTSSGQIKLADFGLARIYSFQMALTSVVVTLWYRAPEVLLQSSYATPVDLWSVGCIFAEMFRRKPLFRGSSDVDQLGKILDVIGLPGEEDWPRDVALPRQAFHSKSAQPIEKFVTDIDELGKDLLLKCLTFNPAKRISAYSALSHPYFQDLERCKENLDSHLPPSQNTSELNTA
Measured quantity: DC50

CC(=O)c1c(C)c2cnc(Nc3ccc(N4CCN(C(=O)N5CCC(CN6CCN(c7ccc8c(c7)CN(C7CCC(=O)NC7=O)C8=O)CC6)CC5)CC4)cn3)nc2n(C2CCCC2)c1=O (centres unmarked)    > 200 nM
CC(=O)c1c(C)c2cnc(Nc3ccc(N4CCN(C(=O)N5CCC(N6CCC(c7ccc8c(c7)CN(C7CCC(=O)NC7=O)C8=O)CC6)CC5)CC4)cn3)nc2n(C2CCCC2)c1=O (centres unmarked)    > 200 nM
Cc1nc2c(F)cc(-c3nc(Nc4ccc(CN5CCN(C6CCN(c7ccc8c(c7)CN(C7CCC(=O)NC7=O)C8=O)CC6)CC5)cn4)ncc3F)cc2n1C(C)C (centres unmarked)    50 to 200 nM
CC(=O)c1c(C)c2cnc(Nc3ccc(N4CCN(CC5CCN(c6ccc7c(c6)CN(C6CCC(=O)NC6=O)C7=O)CC5)CC4)cn3)nc2n(C2CCCC2)c1=O (centres unmarked)    < 50 nM
CC(=O)c1c(C)c2cnc(Nc3ccc(N4CCN(C5CCN(C(=O)N6CCC(N7CCN(c8ccc9c(c8)C(=O)N(C8CCC(=O)NC8=O)C9=O)CC7)CC6)CC5)CC4)cn3)nc2n(C2CCCC2)c1=O (centres unmarked)    > 200 nM

Answer with reported DC50 of "CC(=O)c1c(C)c2cnc(Nc3ccc(N4CCN(CC5CN(c6ccc(N7CCC(=O)NC7=O)cc6)C5)CC4)cn3)nc2n(C2CCCC2)c1=O" < 50 nM

Return DC50 for the following molecule: "Cc1nc2c(F)cc(-c3nc(Nc4ccc(CN5CCN(CC6CN(c7ccc(N8CCC(=O)NC8=O)cc7)C6)CC5)cn4)ncc3F)cc2n1C(C)C" < 50 nM

Give reported DC50 value for CC(=O)c1c(C)c2cnc(Nc3ccc(N4CCN(C(=O)N5CCC(N6CCN(c7ccc8c(c7)C(=O)N(C7CCC(=O)NC7=O)C8=O)CC6)CC5)CC4)cn3)nc2n(C2CCCC2)c1=O (centres unmarked) > 200 nM

In one line, give reported DC50 of the entry Cc1nc2c(F)cc(-c3nc(Nc4ccc(CN5CCN(C6CN(c7ccc8c(c7)CN(C7CCC(=O)NC7=O)C8=O)C6)CC5)cn4)ncc3F)cc2n1C(C)C (centres unmarked) . < 50 nM

Give DC50 for the following molecule: CC(=O)c1c(C)c2cnc(Nc3ccc(N4CCN(C5CCN(c6cccc7c6C(=O)N(C6CCC(=O)NC6=O)C7=O)CC5)CC4)cn3)nc2n(C2CCCC2)c1=O (centres unmarked) 50 to 200 nM

Give a short answer stating reported DC50 for CC(=O)c1c(C)c2cnc(Nc3ccc(N4CCN(CCCNc5cc6c(cc5F)C(=O)N(C5CCC(=O)NC5=O)C6=O)CC4)cn3)nc2n(C2CCCC2)c1=O (centres unmarked) . 50 to 200 nM

====

molecular target: CDK6 (Homo sapiens); construct: endogenous in cells; test: CDK6 degradation (DC50, Dmax); type: cell-based
Below, each entry is listed with its recorded DC50.

Cc1nc2c(F)cc(-c3nc(Nc4ccc(CC5CCN(CC6CCN(c7ccc(C(=O)NC8CCC(=O)NC8=O)cc7)CC6)CC5)cn4)ncc3F)cc2n1C(C)C (centres unmarked) [Compound 159]    < 50 nM
CC(=O)c1c(C)c2cnc(Nc3ccc(N4CCN(C(=O)C5CN(c6ccc7c(c6)C(=O)N(C6CCC(=O)NC6=O)C7=O)C5)CC4)cn3)nc2n(C2CCCC2)c1=O (centres unmarked) [Compound 121]    < 50 nM
CC(=O)c1c(C)c2cnc(Nc3ccc(N4CCN(C5CCN(C(=O)N6CCC(C7CCN(c8ccc9c(c8)C(=O)N(C8CCC(=O)NC8=O)C9=O)CC7)CC6)CC5)CC4)cn3)nc2n(C2CCCC2)c1=O (centres unmarked) [Compound 85]    > 200 nM
CC(=O)c1c(C)c2cnc(Nc3ccc(N4CCN(CCN5CCC(c6ccc7c(c6)CN(C6CCC(=O)NC6=O)C7=O)CC5)CC4)cn3)nc2n(C2CCCC2)c1=O (centres unmarked) [Compound 72]    > 200 nM
Cc1nc2c(F)cc(-c3nc(Nc4ccc(CC5CCN(C(=O)C6CN(c7ccc8c(c7)C(=O)N(C7CCC(=O)NC7=O)C8=O)C6)CC5)cn4)ncc3F)cc2n1C(C)C (centres unmarked) [Compound 143]    50 to 200 nM
CC(=O)c1c(C)c2cnc(Nc3ccc(N4CCN(C(=O)N5CCC(CCN6CCN(c7ccc8c(c7)CN(C7CCC(=O)NC7=O)C8=O)CC6)CC5)CC4)cn3)nc2n(C2CCCC2)c1=O (centres unmarked) [Compound 20]    50 to 200 nM
CC(=O)c1c(C)c2cnc(Nc3ccc(N4CCN(C(=O)N5CCC(C6CCN(c7ccc8c(c7)CN(C7CCC(=O)NC7=O)C8=O)CC6)CC5)CC4)cn3)nc2n(C2CCCC2)c1=O (centres unmarked) [Compound 10]    > 200 nM
Cc1nc2c(F)cc(-c3nc(Nc4ccc(CN5CCN(CCCNc6cccc7c6C(=O)N(C6CCC(=O)NC6=O)C7=O)CC5)cn4)ncc3F)cc2n1C(C)C (centres unmarked) [Compound 100]    50 to 200 nM

Give the value of DC50 reported for the following: Cc1nc2c(F)cc(-c3nc(Nc4ccc(CN5CCN(CC6CN(c7ccc8c(c7)CN(C7CCC(=O)NC7=O)C8=O)C6)CC5)cn4)ncc3F)cc2n1C(C)C (centres unmarked) [Compound 95] < 50 nM

Write down DC50 measured for item Cc1nc2c(F)cc(-c3nc(Nc4ccc(CC5CCN(CC6CN(c7ccc8c(c7)C(=O)N(C7CCC(=O)NC7=O)C8=O)C6)CC5)cn4)ncc3F)cc2n1C(C)C (centres unmarked) [Compound 139] < 50 nM

Report DC50, nothing else, for this compound: CC(=O)c1c(C)c2cnc(Nc3ccc(N4CCN(C(=O)CNc5ccc6c(c5)C(=O)N(C5CCC(=O)NC5=O)C6=O)CC4)cn3)nc2n(C2CCCC2)c1=O (centres unmarked) [Compound 104] 50 to 200 nM

====

target: CDK4 (Homo sapiens, UniProt P11802); construct: endogenous in cells; test: CDK4 degradation (DC50, Dmax); format: cell-based
Sequence (P11802 whole entry): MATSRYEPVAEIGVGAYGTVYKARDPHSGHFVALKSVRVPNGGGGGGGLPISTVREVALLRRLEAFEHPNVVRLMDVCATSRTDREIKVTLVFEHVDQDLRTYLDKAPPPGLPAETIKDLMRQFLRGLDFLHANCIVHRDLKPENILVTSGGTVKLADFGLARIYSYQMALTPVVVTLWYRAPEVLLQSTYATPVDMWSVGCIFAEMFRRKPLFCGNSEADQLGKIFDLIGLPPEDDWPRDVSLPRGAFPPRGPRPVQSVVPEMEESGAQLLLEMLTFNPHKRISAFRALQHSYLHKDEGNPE
Entries annotated with measured Dmax

Cc1nc2c(F)cc(-c3nc(Nc4ccc(CC5CCN(C(=O)C6CN(c7ccc8c(c7)CN(C7CCC(=O)NC7=O)C8=O)C6)CC5)cn4)ncc3F)cc2n1C(C)C (stereo not drawn)    > 80%
CC(=O)c1c(C)c2cnc(Nc3ccc(N4CCN(CC5CCN(C(=O)N6CCN(c7ccc8c(c7)C(=O)N(C7CCC(=O)NC7=O)C8=O)CC6)CC5)CC4)cn3)nc2n(C2CCCC2)c1=O (stereo not drawn)    > 80%

Kindly review the next molecule as well.
Tell me measured Dmax for CC(=O)c1c(C)c2cnc(Nc3ccc(N4CCN(C(=O)C5CN(c6ccc(C(=O)NC7CCC(=O)NC7=O)cc6)C5)CC4)cn3)nc2n(C2CCCC2)c1=O (stereo not drawn) please. > 60%

====

target: CDK6 (Homo sapiens, UniProt Q00534); construct: endogenous in cells; test: CDK6 degradation (DC50, Dmax); type: cell-based
Measured quantity: Dmax

Sample records with Dmax:
Cc1nc2c(F)cc(-c3nc(Nc4ccc(CN5CCN(C6CCN(c7ccc8c(c7)C(=O)N(C7CCC(=O)NC7=O)C8=O)CC6)CC5)cn4)ncc3F)cc2n1C(C)C (stereo not drawn)    > 80%
CC(=O)c1c(C)c2cnc(Nc3ccc(N4CCN(CCN5CCN(C(=O)Nc6ccc7c(c6)C(=O)N(C6CCC(=O)NC6=O)C7=O)CC5)CC4)cn3)nc2n(C2CCCC2)c1=O (stereo not drawn)    > 60%
CC(=O)c1c(C)c2cnc(Nc3ccc(N4CCN(CC5CN(c6ccc7c(c6)CN(C6CCC(=O)NC6=O)C7=O)C5)CC4)cn3)nc2n(C2CCCC2)c1=O (stereo not drawn)    > 80%
CC(=O)c1c(C)c2cnc(Nc3ccc(N4CCN(CC5CCN(C(=O)N6CCC(CN7CCN(c8ccc9c(c8)C(=O)N(C8CCC(=O)NC8=O)C9=O)CC7)CC6)CC5)CC4)cn3)nc2n(C2CCCC2)c1=O (stereo not drawn)    > 80%
CC(=O)c1c(C)c2cnc(Nc3ccc(N4CCN(CC5CCN(C(=O)Nc6ccc7c(c6)CN(C6CCC(=O)NC6=O)C7=O)CC5)CC4)cn3)nc2n(C2CCCC2)c1=O (stereo not drawn)    > 80%

Tell me measured Dmax for CC(=O)c1c(C)c2cnc(Nc3ccc(N4CCN(C5CCN(C(=O)N6CCC(C7CCN(c8ccc9c(c8)C(=O)N(C8CCC(=O)NC8=O)C9=O)CC7)CC6)CC5)CC4)cn3)nc2n(C2CCCC2)c1=O (stereo not drawn) please. > 60%

Item CC(=O)c1c(C)c2cnc(Nc3ccc(N4CCN(CC5CCN(C(=O)N6CCN(c7ccc8c(c7)C(=O)N(C7CCC(=O)NC7=O)C8=O)CC6)CC5)CC4)cn3)nc2n(C2CCCC2)c1=O (stereo not drawn) : provide Dmax > 80%

Provide measured Dmax value, entry: Cc1nc2c(F)cc(-c3nc(Nc4ccc(CC5CCN(CC6CN(c7ccc8c(c7)C(=O)N(C7CCC(=O)NC7=O)C8=O)C6)CC5)cn4)ncc3F)cc2n1C(C)C (stereo not drawn) > 80%
